# test target: Carbonic anhydrase 9 (Homo sapiens)
# method notes: Inhibition of recombinant human carbonic anhydrase 9 preincubated for 15 mins by stopped-flow CO2 hydration assay
Output YES for records whose Ki is lower than 0.02 µM, NO for records at or above 0.02 µM.

These recorded examples may help you get a feel for the data.
- given smiles: "Cc1ccc2c(n1)SCc1ccc(N(C)CC(=O)O)cc1-2"
  category: "NO"
- given smiles: "COc1ccc2c(c1)SCc1cn(-c3ccc(S(N)(=O)=O)cc3)nc1-2"
  category: "YES"
- given smiles: "NS(=O)(=O)c1ccc(Nc2ncc3c(n2)-c2ccc(Cl)cc2SC3)cc1"
  category: "YES"
- given smiles: "COc1ccc2c(c1)SCc1cnc(Nc3ccc(S(N)(=O)=O)cc3)nc1-2"
  category: "NO"

Ask: Does this compound meet the criterion Ki < 0.02 µM? `NS(=O)(=O)c1ccc(Nc2ncc3c(n2)-c2ccccc2SC3)cc1`
Result: YES

Ask: Does `COc1ccc2c(c1)SCc1ccc(NCC(=O)O)cc1-2` have Ki strictly under 0.02 µM?
Result: NO

Ask: For this compound, is Ki lower than 0.02 µM? `COc1ccc2c(c1)SCc1ccc(N(C)CC(=O)O)cc1-2`
Result: NO

Ask: Does the reported Ki of the following compound sit strictly below 0.02 µM? `CN(CC(=O)O)c1ccc2c(c1)-c1cccnc1SC2`
Result: NO

Ask: Input `NS(=O)(=O)c1ccc(-n2cc3c(n2)-c2ccc(Cl)cc2SC3)cc1` ; condition: Ki strictly below 0.02 µM. Does it hold?
Result: YES

Ask: Does this compound meet the criterion Ki < 0.02 µM? `Cc1ccc2c(c1)NCc1cn(-c3ccc(S(N)(=O)=O)cc3)nc1-2`
Result: YES

Ask: Is Ki strictly under 0.02 µM for the entry `NS(=O)(=O)c1ccc(Nc2ncc3c(n2)-c2cccnc2SC3)cc1` ?
Result: NO

Ask: Lab note: Ki threshold 0.02 µM. Does this compound come in strictly under it? `NS(=O)(=O)c1ccc(-n2cc3c(n2)-c2ccccc2NC3)cc1`
Result: YES
